Hi there, I'd appreciate the recorded pIC50 for every entry that follows.
# test-system: GABA transporter 3 (Mus musculus)
# Sequence (P31649 whole entry): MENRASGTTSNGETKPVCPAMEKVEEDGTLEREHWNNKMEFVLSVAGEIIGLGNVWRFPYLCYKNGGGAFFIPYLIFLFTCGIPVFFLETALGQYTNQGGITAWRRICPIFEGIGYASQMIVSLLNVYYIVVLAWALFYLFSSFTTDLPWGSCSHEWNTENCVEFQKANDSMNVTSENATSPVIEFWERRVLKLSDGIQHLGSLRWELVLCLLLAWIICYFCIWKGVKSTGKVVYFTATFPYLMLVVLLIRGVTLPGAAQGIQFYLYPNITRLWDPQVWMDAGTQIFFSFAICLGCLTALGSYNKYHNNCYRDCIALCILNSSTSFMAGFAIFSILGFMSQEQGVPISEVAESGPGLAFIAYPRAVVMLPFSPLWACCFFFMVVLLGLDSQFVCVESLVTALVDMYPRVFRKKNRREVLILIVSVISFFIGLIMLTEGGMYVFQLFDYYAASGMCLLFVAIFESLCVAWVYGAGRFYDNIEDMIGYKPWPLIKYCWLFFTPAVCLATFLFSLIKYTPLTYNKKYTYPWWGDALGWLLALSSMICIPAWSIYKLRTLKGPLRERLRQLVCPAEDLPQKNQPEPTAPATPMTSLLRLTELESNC
# experimental-details: Inhibition of mouse GAT3 expressed in HEK293 cells assessed as decrease in [3H]GABA uptake
Value format note: pIC50 is -log10 of concentration (mol/L); just state the number.

Form field - read-out: pIC50; system: GABA transporter 3 (Mus musculus); submitted item: CN(CCCC(c1ccccc1)c1ccccc1)C(CCN)C(=O)NCc1ccc(F)cc1 (stereo not given)
4.57

Form field - read-out: pIC50; system: GABA transporter 3 (Mus musculus); submitted item: NCCC(C(=O)NCc1ccc(F)cc1)N1CCC(C(c2ccccc2)c2ccccc2)CC1 (stereo not given)
4.67

Form field - read-out: pIC50; system: GABA transporter 3 (Mus musculus); submitted item: NCCC(C(=O)NCc1ccccc1)N1CCN(C(c2ccccc2)c2ccccc2)CC1 (stereo not given)
4.57

Form field - read-out: pIC50; system: GABA transporter 3 (Mus musculus); submitted item: NCCC(NCCC=C(c1ccccc1)c1ccccc1)C(=O)NCc1ccc(Cl)cc1 (stereo not given)
4.75

Form field - read-out: pIC50; system: GABA transporter 3 (Mus musculus); submitted item: Cc1ccc(CNC(=O)C(CCN)NCCC=C(c2ccccc2)c2ccccc2)cc1 (stereo not given)
4.53

Form field - read-out: pIC50; system: GABA transporter 3 (Mus musculus); submitted item: NCCC(NCCC=C(c1ccccc1)c1ccccc1)C(=O)NCc1ccc(F)cc1 (stereo not given)
4.61

Form field - read-out: pIC50; system: GABA transporter 3 (Mus musculus); submitted item: CN(CCC=C(c1ccccc1)c1ccccc1)C(CCN)C(=O)NCc1ccccc1Cl (stereo not given)
5.00

Form field - read-out: pIC50; system: GABA transporter 3 (Mus musculus); submitted item: NCCC(C(=O)NCc1ccc(F)cc1)N1CCC(=C(c2ccccc2)c2ccccc2)CC1 (stereo not given)
4.91

Form field - read-out: pIC50; system: GABA transporter 3 (Mus musculus); submitted item: Cc1ccc(CNC(=O)C(CCN)N(C)CCC=C(c2ccccc2)c2ccccc2)cc1 (stereo not given)
4.92

Form field - read-out: pIC50; system: GABA transporter 3 (Mus musculus); submitted item: NCCC(C(=O)NCc1ccc(F)cc1)N1CCN(C(c2ccccc2)c2ccccc2)CC1 (stereo not given)
4.47

Cited source for all entries: ChEMBL document CHEMBL3286252
